- PROTOCOL SUMMARY: qHTS assay for small molecule disruptors of the mitochondrial membrane potential (AID 720635); further: potency means the concentration at half of the fitted maximal effect
- CONDITIONS USED: HepG2 mitochondrial membrane potential, Mito-MPS dye ratio; series mostly up to 83.2 µM
Results filed as inconclusive are left out. The source made the active and inactive calls. The call rests on the fitted dose curve; in most records, active means well fitted inhibition curve with a large enough effect in the signal ratio in the repeat runs; inconclusive means weak or mixed curves, or effect the other way; inactive means flat fitted curve, though single readings scatter; the % refers to the signal ratio.
ASSAY METRIC: Potency

Record excerpt, results attached:
>>> result("CCOC(=O)CC1(C)OCC(C)O1 (stereo unspecified)")
"inactive"
>>> result("OCC1CCC(CO)CC1 (stereo unspecified)")
"inactive"
>>> result("CC(=O)O[C@H]1C[C@@H]2CC[C@@]1(C)C2(C)C")
"inactive"
>>> result("COC(=O)c1ccccc1C(=O)O")
"inactive"
>>> result("CCCc1ccc(O)cc1")
"54.5 µM (active)"

// each listed compound needs a value for Potency
1. O=C(O)[C@H](O)c1ccccc1
2. O/N=C/C=N/O

1. inactive
2. inactive
